Each recorded value in this set is attributed to PubChem BioAssay (NCI).

Record form. Attribute: TGI. Fill in for each entry.
tested on: MOLT-4 leukemia; assay: NCI tumour cell line growth inhibition, 48 h

Lab note: need TGI for CN(C)CCNS(=O)(=O)c1ccc(N)cc1 on MOLT-4 leukemia, anyone have it? > 100 µM

Look up TGI with MOLT-4 leukemia for this compound: Oc1[nH]c2ccccc2c1N=Nc1nc(-c2ccc(Br)cc2)cs1 > 100 µM

Any idea what TGI came out for CC(C)(C)c1cc2ccc(C(N)=O)cc2c(=O)[nH]1 on MOLT-4 leukemia? > 100 µM

====

tested on: U251 CNS; assay: NCI tumour cell line growth inhibition, 48 h; in the data active = GI50 below about 0.43 µM; inactive = the rest
Where a SMILES comes first, the peptide text is derived from it. [ ]: non-standard residue; d: D form. The star is where a group is joined. ξ: configuration not given here. X3 = COc1ccc(C(N*)c2ccc(OC)cc2)cc1; NMeF = CN[C@@H](Cc1ccccc1)C(=O)O; NMeD = CN[C@@H](CC(=O)O)C(=O)O; NMeV = CN[C@H](C(=O)O)C(C)C; ξNMeV = CNC(C(=O)O)C(C)C; Boc = CC(C)(C)OC(=O)*; ξNMeA = CNC(C)C(=O)O; ξV = CC(C)C(N)C(=O)O
Hi there, use one of these labels in your reply, thanks! yes (1) = active, no (0) = inactive

I'd appreciate the recorded outcome for CCN(C(=O)N1CCN(c2cc3c(cc2F)c(=O)c(C(=O)O)cn3C2CC2)CC1)c1nc(-c2ccc(Cl)cc2)cs1 from this test. no (0)

Give the logged outcome of this assay for the following molecule: CCCCCCCCCCCCC(O)c1ccc(C#CCCCCCCCCCO)o1 (stereo unspecified) no (0)

Just curious, what result did COc1ccc2[nH]cc(/C=C(/C)c3ccncc3)c2c1 get here? no (0)

Per the assay record, what outcome was assigned to COCCOc1ccc(-c2nc3ccc(-c4nc5ccc(N6CCN(C)CC6)cc5[nH]4)cc3[nH]2)cc1 ? no (0)

Would you mind telling me which call this test gave COc1ccc(C(NC(=O)C[C@@H](C(=O)N(C)C(C)C(=O)O)N(C)C(=O)[C@@H]2CCCN2C(=O)[C@H](C(C)C)N(C)C(=O)C(C(C)C)N(C)C(=O)[C@H](Cc2ccccc2)N(C)C(=O)C(NC(=O)OC(C)(C)C)C(C)C)c2ccc(OC)cc2)cc1 (stereo partly specified) (Boc-[ξV][NMeF][ξNMeV][NMeV]P[NMeD](X3)[ξNMeA]-OH) ? no (0)

For Nc1c(C(=O)Nc2cccc(C(F)(F)F)c2)sc2nc3c(cc12)CCCCC3 , what call appears in the results of this test? no (0)

Answer briefly: the call reported for COc1ccc(CN2C(=O)/C(=C\c3cc(OC)c(OC)c(OC)c3)c3ccccc32)cc1 in this assay. no (0)

Identify the outcome logged in this assay for the molecule shown: CCC(=C/[C@H](C)C/C=C/C(C)=C/[C@@H](C)C(=O)[C@@H](C)[C@H](O)[C@@H](C)CC)/C=C/[C@H]1OC(=O)C=C[C@@H]1C yes (1)

Answer briefly: the call reported for O=C(/C(=C/c1ccc([N+](=O)[O-])cc1)SCc1ccccc1)c1ccc(Cl)cc1 in this assay. no (0)

How was Nc1ccc(C2=NNC(=O)Cc3cc4c(cc32)OCCO4)cc1Cl classified in this test? no (0)

I would be grateful if you could indicate the recorded call for CCCOc1cc2ccccc2cc1C(=O)Nc1nc(N)c2c(ccc3nccc32)[nH]1 . yes (1)
